Settings: in 1,4-dioxane, 293.2 K
property: solubility (mole fraction)
Kindly provide the number alone.

State the recorded solubility (mole fraction) for this entry: `Cc1ccc(-c2ncc(Cl)cc2-c2ccc(S(C)(=O)=O)cc2)cn1`
0.0445

====

Settings: in n-propanol, 293.2 K
property: solubility (mole fraction)

State the recorded solubility (mole fraction) for this entry: `Cc1ccc(-c2ncc(Cl)cc2-c2ccc(S(C)(=O)=O)cc2)cn1`
0.0505

====

Details: in propylene glycol, 303.2 K
property: solubility (mole fraction)
Kindly provide the number alone.

State the recorded solubility (mole fraction) for this entry: `Cc1ccc(-c2ncc(Cl)cc2-c2ccc(S(C)(=O)=O)cc2)cn1`
0.0754
